A collection of compounds and their measured activity, negative = cell killing
# measurement-protocol: Drug repurposing screens with cells derived from glioblastoma tumor samples (AID 1345199); further: on the % scale 0 is the no-effect control and ±100 the full control effect
# experimental-setup: GBM patient neurospheres viability, ATP luminescence, 48 h; at 46.1 µM (top of the series); tumour line C
Inconclusive results are not listed.
Value expressed in %; do not type the unit.

Before answering, review these 6 worked examples.
[
  {
    "compound": "COc1ccc(C(=O)CC(=O)c2ccc(C(C)(C)C)cc2)cc1",
    "unit-annotation": "%",
    "activity, negative = cell killing": 3.24
  },
  {
    "compound": "C[C@@H]1CN(c2c(F)c(N)c3c(=O)c(C(=O)O)cn(C4CC4)c3c2F)C[C@H](C)N1",
    "unit-annotation": "%",
    "activity, negative = cell killing": -3.77
  },
  {
    "compound": "Cc1nnc(C(=O)NC(C)(C)c2nc(C(=O)NCc3ccc(F)cc3)c(O)c(=O)n2C)o1",
    "unit-annotation": "%",
    "activity, negative = cell killing": 13.1
  },
  {
    "compound": "O=C(O)CCn1c2c(c3ccccc31)C[C@H](NS(=O)(=O)c1ccc(F)cc1)CC2",
    "unit-annotation": "%",
    "activity, negative = cell killing": -18.1
  },
  {
    "compound": "CC(=O)[C@H]1CC[C@H]2[C@@H]3CC=C4C[C@@H](O)CC[C@]4(C)[C@H]3CC[C@]12C",
    "unit-annotation": "%",
    "activity, negative = cell killing": 6.87
  },
  {
    "compound": "CC(C(=O)O)c1ccc2c(c1)CC(=O)c1ccccc1S2 (centres undefined)",
    "unit-annotation": "%",
    "activity, negative = cell killing": 5.54
  }
]

INPUT: What measured activity, negative = cell killing goes with S=P(N1CC1)(N1CC1)N1CC1 ?
OUTPUT: -0.68

INPUT: What measured activity, negative = cell killing goes with CCc1c2c(nc3ccc(OC(=O)N4CCC(N5CCCCC5)CC4)cc13)-c1cc3c(c(=O)n1C2)COC(=O)[C@]3(O)CC ?
OUTPUT: -5.46

INPUT: What measured activity, negative = cell killing goes with CC(C)(C)C(=O)OCOP(=O)(COCCn1cnc2c(N)ncnc21)OCOC(=O)C(C)(C)C ?
OUTPUT: -7.63

INPUT: What measured activity, negative = cell killing goes with C[C@@H](CN1CC(=O)NC(=O)C1)N1CC(=O)NC(=O)C1 ?
OUTPUT: -0.792

INPUT: What measured activity, negative = cell killing goes with NNC(=O)c1ccncc1 ?
OUTPUT: -1.87

INPUT: What measured activity, negative = cell killing goes with CCCN[C@H]1CCc2nc(N)sc2C1 ?
OUTPUT: -13
